Recorded melting point for the following compounds

compound: Fc1ccccc1-c1nc2ncncc2[nH]1
melting point: 267 to 271 °C

compound: CCSc1cc(=O)c2c(O)cc(O)c([C@H]3CCN(C)C[C@H]3O)c2o1 (relative stereo)
melting point: 104 °C

compound: Cc1nc2ccccc2c2c([N+](=O)[O-])cnn12
melting point: 178 to 179 °C

compound: Cc1[nH]c2ccccc2c1C(C)c1cccnc1 (stereo unspecified)
melting point: 139 to 141 °C

compound: CN1N=C(C2CCCCC2)CC1=O
melting point: 170 to 172 °C

compound: CCOC(=O)c1[nH]c2cc(Cl)cc(Cl)c2c1NCC(=O)c1cccc(F)c1
melting point: 234 to 235 °C

compound: COc1cc2c(cc1F)C(=Cc1ccc(SC)cc1)C(C)=C2CC(=O)O
melting point: 172 to 174 °C

compound: O=C(NCc1ccc(Cl)cc1)c1cnc2ccc(CN3CCOCC3)cc2c1O
melting point: 219 to 220 °C

compound: CC(=O)N(C)c1cc(-c2ccnc3c(C(=O)c4cccs4)cnn23)ccc1Cl
melting point: 191 to 193 °C

compound: COc1ccc(/C(C)=C\c2ccc(C(=O)O)cc2)cc1C(C)(C)C
melting point: 182 to 184 °C

compound: CNC(=O)C(C)c1ccc2c(c1)CCc1ccccc1C2=O (stereo unspecified)
melting point: 140 °C

compound: Nc1c(Cl)cc(Cn2nc(-c3ccc(Cl)c(Cl)c3)oc2=O)c(O)c1Cl
melting point: 200 to 202 °C

compound: COc1ccc(C(O)(CC#N)c2ccc(OC)cc2)cc1
melting point: 102 °C

compound: C=C1CCc2c(F)c(F)cc3c(=O)c(C(=O)O)cn1c23
melting point: 220 to 232 °C

compound: COc1cccc2c1CNC2
melting point: 58.5 to 60 °C

compound: COc1ccc(C2(C#Cc3ccc(NC(C)=O)cc3)CCC(=O)CC2)cc1OC1CCCC1
melting point: 79 to 80 °C

====

molecule: CN(C)S(=O)(=O)CS(=O)(=O)c1ccccc1
melting point: 102 to 103 °C
//
molecule: CS(=O)c1ccc(-c2coc3ccc(-c4nnc(O)o4)cc23)cc1 (stereo unspecified)
melting point: 234 to 237 °C
//
molecule: Cc1ccccc1-n1c(-c2cc(-c3ccc(Cl)cc3)c(N3CCOCC3)s2)nc2ccccc2c1=O
melting point: 186 to 189 °C
//
molecule: C=CCN1CC(C(=O)Nc2cc(C)nc(C)n2)CC2c3cccc4[nH]cc(c34)CC21 (stereo unspecified)
melting point: 182 to 186 °C
//
molecule: Cc1c(N)c(C)c(Cc2ccc(C(C)C)cc2)c2c1CCO2
melting point: 114 to 115 °C
//
molecule: CCC(=O)C(=CN(C)C)Oc1cc(Cl)cc(Cl)c1
melting point: 96 to 97 °C
//
molecule: COc1ccc(NC(=O)C23CC4CC(CC(C4)C2)C3)cc1
melting point: 181 to 184 °C
//
molecule: CC(=NO)C(C)Oc1ccccc1 (stereo unspecified)
melting point: 65 to 67 °C
//
molecule: Fc1cc2c(cc1F)CC(n1cc[nH]c1=S)C2
melting point: 255 to 257 °C
//
molecule: C=C(CC(N)C(=O)OCC)CC(NC=O)(C(=O)OCC)C(=O)OCC (stereo unspecified)
melting point: 50 °C
//
molecule: NC(=O)c1ccc(-c2ccc3nnn(Cc4cc5cccnc5cc4F)c3n2)cc1Cl
melting point: 202 to 204 °C
//
molecule: CCN(CC)CCOc1ccc2cc3ccc(OCCN(CC)CC)c(CO)c3nc2c1CO
melting point: 95 to 96 °C
//
molecule: COC(=O)CCCc1cc2cc(C(F)(F)F)ccc2n1S(=O)(=O)c1ccc2nc(C)oc2c1
melting point: 78 to 82 °C
//
molecule: CSc1cncc(-c2nc(=O)c3ccccc3s2)n1
melting point: 202 to 203 °C
//
molecule: NC(=O)[C@H]1[C@H](CS)N(Cc2ccccc2)C(=O)N1Cc1ccccc1
melting point: 119 to 122 °C
//
molecule: CC(C)CNC(=O)C=CC=CCCCCCCCOc1cccc(Cl)n1
melting point: 80 to 81 °C

Values compiled from a melting point compilation (Tetko et al.; mined from patent text by program, amines drawn as free bases though some values may be those of a salt).
